These data points were gathered from paper PMC5748751.

Answer each item with its documented Papp A→B at 60 min, 40 μM.
assayText: Permeability (bidirectional transport) of flavonoids in Caco-2 cell monolayers
Format: in vitro ADME
experimentalSetup: human, Caco-2, apical to basolateral, incubation 60 min, 37 °C, D-Hank's pH 7.4, mean ± SD, n = 3–6
Dear colleague, please return just the value in ×10⁻⁶ cm/s, with no unit written.

Return reported Papp A→B at 60 min, 40 μM. Input compound: "COc1c(O)cc(O)c2c(=O)cc(-c3ccccc3)oc12" 16.4

Tell me measured Papp A→B at 60 min, 40 μM for "COc1ccc(-c2cc(=O)c3c(OC)c(OC)c(OC)c(OC)c3o2)cc1" please. 21.9

Supply measured Papp A→B at 60 min, 40 μM of O=C1c2c(O)cc(O)cc2OC(c2ccc(O)c(O)c2)C1O (centres unmarked) in your reply. 6.32

Report measured Papp A→B at 60 min, 40 μM; entry is "O=C1C[C@@H](c2ccc(O)cc2)Oc2cc(O)cc(O)c21" 32.1

Quick one: give measured Papp A→B at 60 min, 40 μM for COc1ccc(-c2oc3cc(O)cc(O)c3c(=O)c2O)cc1 [Compound 13, Kaempferide] 0.35

Quickly give me recorded Papp A→B at 60 min, 40 μM for "O=c1cc(-c2ccccc2)oc2cc(O)c(O)c(O)c12" 1.95

For the compound "O=c1cc(-c2ccc(O)cc2)oc2cc(O)cc(O)c12" , report Papp A→B at 60 min, 40 μM. 17.1

Give recorded Papp A→B at 60 min, 40 μM. "O=c1c(O)c(-c2ccccc2)oc2cc(O)cc(O)c12" 1.94

---

System: Caco-2 cell monolayer
assayText: Cellular accumulation (CA) of flavonoids in Caco-2 cell monolayer
experimentalSetup: accumulated in cell monolayer after transport apical to basolateral, 40 μM, 1 h, normalized to cellular protein, mean ± SD, n = 3
What CA A to B was measured for each of the following?
API: value field is a number in µmol/g; no unit string.

Identify measured CA A to B associated with COc1ccc(-c2coc3cc(O)cc(O)c3c2=O)cc1 [Compound 28, Biochanin A] 6.766

Supply measured CA A to B of O=C1C[C@@H](c2ccc(O)cc2)Oc2cc(O)ccc21 [Compound 21, Liquiritigenin] in your reply. 0.635

Note CA A to B for the compound shown: O=c1cc(-c2ccc(O)c(O)c2)oc2cc(O)cc(O)c12 [Compound 5, Luteolin] 3.876

Give CA A to B for the following compound: C[C@@H]1O[C@@H](O[C@H]2[C@H](Oc3cc(O)c4c(c3)O[C@H](c3ccc(O)cc3)CC4=O)O[C@H](CO)[C@@H](O)[C@@H]2O)[C@H](O)[C@H](O)[C@H]1O [Compound 20, Naringin] 0.058

Identify the reported CA A to B for the following entry. O=c1c(O)c(-c2ccccc2)oc2cc(O)cc(O)c12 [Compound 9, Galangin] 3.780

For the compound O=c1cc(-c2ccc(O)cc2)oc2cc(O)cc(O)c12 [Compound 6, Apigenin] , give its reported CA A to B. 4.415

Read off the recorded CA A to B for O=C1C[C@@H](c2ccc(O)cc2)Oc2cc(O)cc(O)c21 [Compound 19, Naringenin] 1.935

Give the reported CA A to B for this compound. O=c1c(O)c(-c2ccc(O)cc2)oc2cc(O)cc(O)c12 [Compound 12, Kaempferol] 8.368
